Field: PBM E-score. Provide a value for each of the sequences that follow.
- TARGET ENTITY: Sko1 (UniProt Q02100)
- Sequence: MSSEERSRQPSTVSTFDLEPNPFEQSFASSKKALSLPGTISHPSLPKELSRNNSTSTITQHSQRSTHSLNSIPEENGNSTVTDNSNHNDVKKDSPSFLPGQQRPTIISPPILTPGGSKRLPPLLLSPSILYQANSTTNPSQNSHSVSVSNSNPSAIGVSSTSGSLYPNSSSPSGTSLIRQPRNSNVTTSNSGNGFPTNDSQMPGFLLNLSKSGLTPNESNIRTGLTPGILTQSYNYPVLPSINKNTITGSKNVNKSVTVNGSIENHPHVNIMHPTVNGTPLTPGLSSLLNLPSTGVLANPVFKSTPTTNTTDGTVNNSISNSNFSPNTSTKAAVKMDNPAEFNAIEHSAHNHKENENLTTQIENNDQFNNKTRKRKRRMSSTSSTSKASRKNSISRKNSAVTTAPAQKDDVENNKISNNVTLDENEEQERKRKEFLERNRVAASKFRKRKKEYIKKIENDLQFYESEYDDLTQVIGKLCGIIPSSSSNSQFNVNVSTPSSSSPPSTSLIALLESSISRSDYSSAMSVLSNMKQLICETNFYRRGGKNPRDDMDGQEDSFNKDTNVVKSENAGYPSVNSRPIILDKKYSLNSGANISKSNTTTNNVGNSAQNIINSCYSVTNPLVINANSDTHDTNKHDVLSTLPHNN
- ASSAY NAME: PBM E-score (8-mer binding enrichment) (E-score (-0.5 to 0.5)); higher = stronger / more preferred TF binding
- STUDY CONDITIONS: protein concentration: 200 nM; construct: GST-full length
Over roughly 33,000 sequences, “E-score (-0.5 to 0.5)” has its median near -0.032; the highest 2% begin near 0.36. This excerpt belongs to a sample that is enriched for the highest values.
Lab note: jot the number down without any unit.

GET /values?item= CAGCATCG &system= Sko1 (UniProt Q02100) returns PBM E-score: -0.332

GET /values?item= CTGGTGGA &system= Sko1 (UniProt Q02100) returns PBM E-score: -0.185

GET /values?item= TCAGAGAA &system= Sko1 (UniProt Q02100) returns PBM E-score: 0.00926

GET /values?item= GTCGGTGA &system= Sko1 (UniProt Q02100) returns PBM E-score: 0.049

GET /values?item= CTCGTCAA &system= Sko1 (UniProt Q02100) returns PBM E-score: 0.0618

GET /values?item= ACGCCATC &system= Sko1 (UniProt Q02100) returns PBM E-score: 0.376

GET /values?item= CTCTAGGA &system= Sko1 (UniProt Q02100) returns PBM E-score: -0.335

GET /values?item= CGCTTAAA &system= Sko1 (UniProt Q02100) returns PBM E-score: 0.0298

GET /values?item= ATCGTCGC &system= Sko1 (UniProt Q02100) returns PBM E-score: 0.0155

GET /values?item= CGCGTCAA &system= Sko1 (UniProt Q02100) returns PBM E-score: 0.34

GET /values?item= ACGCCAAG &system= Sko1 (UniProt Q02100) returns PBM E-score: -0.0349

GET /values?item= CCGCCATA &system= Sko1 (UniProt Q02100) returns PBM E-score: -0.182

GET /values?item= CTCGTCAG &system= Sko1 (UniProt Q02100) returns PBM E-score: 0.176

GET /values?item= CACGTTAC &system= Sko1 (UniProt Q02100) returns PBM E-score: 0.305

GET /values?item= ACGCCACC &system= Sko1 (UniProt Q02100) returns PBM E-score: 0.0629

GET /values?item= ACGCAACA &system= Sko1 (UniProt Q02100) returns PBM E-score: 0.388

GET /values?item= ACGCAACC &system= Sko1 (UniProt Q02100) returns PBM E-score: 0.379

GET /values?item= GCCCGTAA &system= Sko1 (UniProt Q02100) returns PBM E-score: 0.172

GET /values?item= CACACGTA &system= Sko1 (UniProt Q02100) returns PBM E-score: 0.45

GET /values?item= TACGTTCA &system= Sko1 (UniProt Q02100) returns PBM E-score: 0.374

GET /values?item= ACGCAACT &system= Sko1 (UniProt Q02100) returns PBM E-score: 0.355

GET /values?item= GCGCAACC &system= Sko1 (UniProt Q02100) returns PBM E-score: -0.162

GET /values?item= CGCACTGA &system= Sko1 (UniProt Q02100) returns PBM E-score: 0.0222

GET /values?item= ACGCAACG &system= Sko1 (UniProt Q02100) returns PBM E-score: 0.377

GET /values?item= ATCACTCA &system= Sko1 (UniProt Q02100) returns PBM E-score: 0.0754

GET /values?item= AACGTTAT &system= Sko1 (UniProt Q02100) returns PBM E-score: 0.368

GET /values?item= TGTTGCAA &system= Sko1 (UniProt Q02100) returns PBM E-score: 0.131

GET /values?item= GTCGTCAA &system= Sko1 (UniProt Q02100) returns PBM E-score: 0.239

GET /values?item= GCGCCATA &system= Sko1 (UniProt Q02100) returns PBM E-score: 0.0343

GET /values?item= CCGCAACG &system= Sko1 (UniProt Q02100) returns PBM E-score: 0.0186

GET /values?item= CAATTCAC &system= Sko1 (UniProt Q02100) returns PBM E-score: 0.049

Provenance of the data: the supplement of paper PMC3334620
